target: PEG-3 (UniProt Q6IN02); assay: Peg3 promoter luciferase inhibitors, potency, dose response, cell-based, HeLa, CREF/GAPDH counter-screen panel (AID 624167); details: HeLa PEG-Prom luciferase reporter, overnight, CREF/GAPDH counter-screens, mean of runs
Sequence (Q6IN02 whole entry, looked up): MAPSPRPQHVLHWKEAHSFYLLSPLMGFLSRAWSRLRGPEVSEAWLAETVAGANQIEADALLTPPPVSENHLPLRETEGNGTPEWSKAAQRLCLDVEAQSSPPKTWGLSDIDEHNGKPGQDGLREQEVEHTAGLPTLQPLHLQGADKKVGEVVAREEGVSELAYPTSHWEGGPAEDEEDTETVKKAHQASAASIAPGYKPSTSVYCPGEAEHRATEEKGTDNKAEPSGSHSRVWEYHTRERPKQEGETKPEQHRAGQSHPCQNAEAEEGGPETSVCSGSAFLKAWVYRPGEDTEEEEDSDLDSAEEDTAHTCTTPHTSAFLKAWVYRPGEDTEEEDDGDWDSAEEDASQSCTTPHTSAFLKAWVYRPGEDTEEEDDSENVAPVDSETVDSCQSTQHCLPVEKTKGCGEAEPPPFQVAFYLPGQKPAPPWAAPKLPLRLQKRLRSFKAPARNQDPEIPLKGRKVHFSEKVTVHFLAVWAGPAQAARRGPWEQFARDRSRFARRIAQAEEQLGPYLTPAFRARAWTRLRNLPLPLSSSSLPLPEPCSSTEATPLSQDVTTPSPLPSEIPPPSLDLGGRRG
Calls of active or inactive are those of the source.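 Rule for the calls: active = mean IC50 for reducing PEG3 promoter reporter signal at or below a set limit, with IC50 above the limit in both counter screens; inactive = the rest, including counter screen hits.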
PROPERTY MEASURED: IC50

Here are 4 molecules together with their reported answers.
Query: Item COc1cccc(CN(C)C(=O)c2cc(-c3cccs3)nc3ccccc23)c1 with PEG-3 (UniProt Q6IN02) - IC50?
Reply: inactive

Query: For C=C1CC(COc2ccc3c(C)c(Cl)c(=O)oc3c2)(c2ccccc2)OC1=O (stereo unspecified) then?
Reply: 5.04 µM

Query: For Cc1cc(NC(c2cccnc2)c2ccc3cccnc3c2O)no1 (stereo unspecified) then?
Reply: 6.13 µM

Query: For Cc1ccc(C)c(NP(=O)(Oc2ccccc2)Oc2ccccc2)c1 then?
Reply: inactive

Continuing:
Query: Item COc1cc(/C=C2\SC(=Nc3ccccc3OC)NC2=O)ccc1O with PEG-3 (UniProt Q6IN02) - IC50?
Reply: inactive

Query: For CN1CCC2(CC1)N=C(c1ccc(F)cc1)C(=S)N2C(=O)c1ccc(C(C)(C)C)cc1 then?
Reply: 3.75 µM

Query: For COC(=O)Cc1[nH]n(-c2nc3ccccc3s2)c(=O)c1C(C)=Nc1ccc(Cl)cc1 then?
Reply: 12.5 µM

Query: For Cc1c(C(=O)Nc2ccc(S(=O)(=O)N(C)C3CCN(C)CC3)cc2)oc2c(Cl)cccc12 then?
Reply: 12.8 µM

Query: For CC(=O)Nc1cccc(NC(=O)c2cc(-c3cccnc3)nc3ccc(Cl)cc23)c1 then?
Reply: inactive

###

system: Rat fibroblasts (CREF); test: Peg3 promoter luciferase inhibitors, potency, dose response, cell-based, HeLa, CREF/GAPDH counter-screen panel (AID 624167); details: CREF/GAPDH counter-screens, run 1, dose range 1, individual replicate IC50 per panel
Classes are defined on IC50 with ranges low-valued = under 1 µM, mid-valued = from 1 µM up to 5 µM, high-valued = 5 µM and over

Query: Bin this entry: Cc1ccc(-c2nc(-c3ccccn3)no2)cc1
Reply: low-valued

Query: For O=C(Nc1nc2cc3c(cc2s1)OCCO3)c1ccco1 then?
Reply: low-valued

Query: For CN(C)c1ccc(NC(=S)c2ccccn2)cc1 then?
Reply: mid-valued

Query: For C/C(=N\NC(=O)c1cc(C2CC2)nc2ccccc12)c1ccc(O)cc1O then?
Reply: high-valued

Query: For Cc1cc(C(=O)CN2C(=O)c3ccccc3S2(=O)=O)c(C)n1-c1ccccc1 then?
Reply: high-valued

Query: For O=C(Nc1ncc([N+](=O)[O-])s1)c1ccc2c(c1)OCO2 then?
Reply: high-valued

Query: For COc1ccc(C(=O)CN2C(=O)c3ccccc3S2(=O)=O)cc1 then?
Reply: mid-valued

Query: For O=C(NCCc1ccccc1F)c1ccc2c(c1)OCCO2 then?
Reply: mid-valued

Continuing:
Query: Bin this entry: COc1cc(SC)ccc1C(=O)Nc1nc2ccccc2[nH]1
Reply: low-valued

Query: For COc1ccc(/C=N/Nc2nncc3ccccc23)cc1 then?
Reply: low-valued

Query: For CC1CC(C)C(=O)C(C(CC2CC(=O)NC(=O)C2)OC(=O)CC(=O)c2ccccc2)C1 (stereo not drawn) then?
Reply: high-valued

Query: For O=C(Nc1cccc(C(=O)O)c1)Nc1ccc2c(c1)OCO2 then?
Reply: high-valued

Query: For Cc1ccc2nc(-c3ccc4c(c3)OCCO4)cn2c1 then?
Reply: low-valued

Query: For CCCS(=O)(=O)c1cnc(C2COc3ccccc3O2)nc1N (stereo not drawn) then?
Reply: high-valued

Query: For c1ccc(-c2noc(-c3ccc4c(c3)OCO4)n2)nc1 then?
Reply: low-valued

###

test: Peg3 promoter luciferase inhibitors, potency, dose response, cell-based, HeLa, CREF/GAPDH counter-screen panel (AID 624167); details: CREF/GAPDH counter-screens; GAPDH; mean of runs
Active and inactive are the calls of the source.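 Rule for the calls: active = mean IC50 for reducing PEG3 promoter reporter signal at or below a set limit, with IC50 above the limit in both counter screens; inactive = the rest, including counter screen hits.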
The reply should name one outcome from label 1 for active, label 0 for inactive

Query: // return assay outcome for C=Cc1cc(OC)c2c(c1)c(=O)oc1c2cc(OC)c2c(O)ccc(C3OC(C)C(O)C(C)(O)C3O)c21 (stereo not drawn)
Reply: label 0

Query: For CCc1ccc(/C=C2\SC(=S)N(CCCC(=O)NC3=NCCS3)C2=O)cc1 then?
Reply: label 1

Query: For CCC(c1ccc(O)c(O)c1)C(CC)c1ccc(O)c(O)c1 (stereo not drawn) then?
Reply: label 0

Query: For Cc1cc(C)c(C)c(S(=O)(=O)N2CCN(C(=O)c3cc(=O)[nH]c4ccccc34)CC2)c1C then?
Reply: label 0

Query: For CCc1ccn2cc(-c3ccc4c(c3)OCO4)nc2c1 then?
Reply: label 1

Query: For COc1ccc(-n2cc(-c3ccccc3)c3c(N4CCOCC4)ncnc32)cc1 then?
Reply: label 1

Query: For CC(=O)OC1(C)CC(C)C(=O)C(C(O)CC2CC(=O)NC(=O)C2)C1 (stereo not drawn) then?
Reply: label 1

###

test system: PEG-3; test: Peg3 promoter luciferase inhibitors, potency, dose response, cell-based, HeLa, CREF/GAPDH counter-screen panel (AID 624167); details: HeLa PEG-Prom luciferase reporter, overnight, CREF/GAPDH counter-screens, run 1, dose range 1, individual replicate IC50 per panel
Classes are defined on IC50 with ranges bottom end: < 20 µM; midrange: ≥ 20 µM and < 30 µM; top end: ≥ 30 µM

Some entries whose results are on file:
Query: Bin this entry: Cc1cc(Br)ccc1NC(=O)CN1C(=O)C2C3CC(c4ccccc4)C(C3)C2C1=O (stereo not given)
Reply: midrange

Query: For C(=N\Nc1ccc2ccccc2n1)/c1ccc2c(c1)OCCO2 then?
Reply: bottom end

Query: For CC(C)CC(N)c1csc(Nc2ccc(C(=O)N(C)Cc3ccccc3)cn2)n1 (stereo not given) then?
Reply: bottom end

Query: For COc1cc(/C=C/c2ccc3cccc(O)c3n2)c(Br)cc1O then?
Reply: top end

Continuing:
Query: Bin this entry: COc1ccc2c(c1OC)C(=O)N1c3ccccc3C(=O)N(c3ccccc3F)C21 (stereo not given)
Reply: bottom end

Query: For CN(C)c1ccc(N=Nc2nc3ccccc3n2C)cc1 then?
Reply: midrange

Query: For COc1ccc(CN(C)C(=O)c2cc(-c3ccccc3)nc3ccc(C)cc23)c(OC)c1OC then?
Reply: top end

Query: For O=c1c2ccccc2oc2cc(C#CC3(O)CCCCC3)ccc12 then?
Reply: midrange

###

test system: GAPDH; experiment: Peg3 promoter luciferase inhibitors, potency, dose response, cell-based, HeLa, CREF/GAPDH counter-screen panel (AID 624167); conditions: CREF/GAPDH counter-screens, run 1, dose range 1, individual replicate IC50 per panel
Entries and their measured log10(IC50) follow.
// stored as log10 of IC50 expressed in µM

Query: Requested field: log10(IC50). Item: O=C(COc1ccc2c(c1)CCC2)Nc1ccccn1
Reply: 0.47

Query: For NC(C(=O)O)C1ON=C(Cl)C1O (centres undefined) then?
Reply: -0.03

Query: For CCCCCCCNC(=O)C1(CC2CC(c3cccc(Br)c3)=NO2)CCNCC1 (centres undefined) then?
Reply: 1.13

Query: For CC1CC(C)C(=O)C(C(CC2CC(=O)NC(=O)C2)OC(=O)CC(=O)c2ccccc2)C1 (centres undefined) then?
Reply: -0.22

Query: For Nc1nonc1-n1nnc(C(=O)N/N=C/c2cc(Br)ccc2O)c1CNc1ccccc1 then?
Reply: 1.66

Continuing:
Query: Requested field: log10(IC50). Item: CS(=O)(=O)c1ccc(-c2sc3ccccc3c2C#CCCO)cc1
Reply: 1.48

Query: For Cc1ccc(-n2c(N)c(C(=O)Nc3c(C)n(C)n(-c4ccccc4)c3=O)c3nc4ccccc4nc32)cc1 then?
Reply: 1.42

Query: For CC1=CC2C(C(O)CC3(C)C2CC(C)C32OCOC23COCO3)C2(C)C/C(=C\O)C(=O)C=C12 (centres undefined) then?
Reply: 0.89

Query: For CN(C)c1ccc(C=c2c3ccccc3n3c2cc(-c2ccccc2)[n+]3C)cc1 then?
Reply: 0.97

Query: For CCc1ccc(/C=C2\SC(=S)N(CCCC(=O)Nc3ccccn3)C2=O)cc1 then?
Reply: 1.19

Query: For CN1OC[C@@H]2CN(S(=O)(=O)c3cccc(C(F)(F)F)c3)[C@H](c3ccc(-c4cc5ccccc5o4)cc3)C[C@@H]21 then?
Reply: 1.65

Query: For CC(=O)NC(c1ccc(Cl)cc1Cl)c1ccc2cccnc2c1O (centres undefined) then?
Reply: 1.50

Query: For Cc1cc(C(=O)Nc2cccc(C(=O)O)c2)oc1C then?
Reply: 0.82

Query: For COc1cccc2c1C(=O)c1c(O)c3c(c(O)c1C2=O)CC(O)(C(C)=NNC(=O)c1ccc(Cl)c(Cl)c1)CC3OC1CC(N)C(O)C(C)O1 (centres undefined) then?
Reply: 0.53

Query: For Cc1ccc(OCC(=O)c2cc(C)n(Cc3ccco3)c2C)c([N+](=O)[O-])n1 then?
Reply: 0.86

Query: For O=[N+]([O-])c1nn(-c2ccc3c(c2)OCCO3)n(O)c1=Nc1ccc(Cl)cc1 then?
Reply: 0.47

Query: For CCOC(=O)c1c(SCCN2CCCCC2)n(-c2ccccc2)c(=S)n(-c2ccccc2)c1=O then?
Reply: 1.27

Query: For COc1ccc(-n2cc(-c3ccccc3)c3c(N4CCOCC4)ncnc32)cc1 then?
Reply: 1.33

Query: For CCSc1nc2ccccc2n1C(=O)/C=C\c1ccc(OC)c(OC)c1 then?
Reply: 1.15

Query: For CCCCCCN1C=C/C(=C\C=C(C#N)C#N)c2ccccc21 then?
Reply: 0.09

Query: For COc1cc(OC)c2cc(C(=O)N/N=C/c3ccccc3O)[nH]c2c1 then?
Reply: 1.88

Query: For CC1=NOC(=O)/C1=C\c1ccc(-c2ccccc2Br)o1 then?
Reply: 1.23
